Each record here notes measured geo mean.
Target: T1, mouse B7-H1 on J558 cells (mouse, UniProt Q9EP73 19-290)
T1 construct: whole, on cells
T1 sequence (Q9EP73 19-290): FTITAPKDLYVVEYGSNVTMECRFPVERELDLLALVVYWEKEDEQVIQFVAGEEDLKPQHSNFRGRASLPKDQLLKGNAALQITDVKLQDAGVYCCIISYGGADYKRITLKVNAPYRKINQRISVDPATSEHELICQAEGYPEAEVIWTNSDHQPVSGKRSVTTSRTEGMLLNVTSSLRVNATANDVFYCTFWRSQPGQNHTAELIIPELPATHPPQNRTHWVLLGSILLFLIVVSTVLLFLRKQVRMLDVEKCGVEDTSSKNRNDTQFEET
Assay: FACS, 5 µg/ml antibody, J558 cells expressing mouse B7-H1
measured.metric: geo mean

binder	measured.metric	quantitative.result
2.9D10 (antibody, V domains shown, Tested as hybridoma supernatant or purified antibody; also called mAb 2.9D10) VH: EVQLVESGGGLVQPGGSLRLSCAASGFTFSSYWMSWVRQAPGKGLEWVANIKQDGGEQYYVDSVKGRFTISRDNAKNSLYLQMNSLRAEDTAVYYCARDWNYGYYDMDVWGQGTTVTVSS VL: EIVLTQSPGTLSLSPGERATLSCRASQSVSSNYLAWFQQKPGQAPRLLIFGTSSRATGIPDRFSGSGSGTDFTLTISRLEPEDFAVYYCQQYGSSIFTFGPGTKVDIK	geo mean	3.2
3.18G1 (antibody, V domains shown, also called mAb 3.18G1) VH: EVQLLESGGDLVQPGGSLRLSCAASGFTFNSYAMSWVRQAPGKGLEWVSTISGSGGFTFSADSVKGRFTISRDNSKNTLFLQMNSLRVEDSAVYSCAKVLVGFNNGCWDYWGQGTLVTVSS VL: SYVLTQPPSVSVAPGQTARITCGGNNIGSKSVHWYQQKPGQAPVLVVYDDSDRPSGIPERFSGSNSGNTATLTISRVEAGDEADYYCQVWDSSNDHVVFGGGTKLTVL	geo mean	3.2
3.15G8 (antibody, IgG4, V domains shown, also called mAb 3.15G8) VH: EVQLVESGGGLVQPGGSLRLSCAASGFTFSSYWMSWVRQAPGKGLEWVANIKQDGGEKYYVDSVKGRFTISRDNAKNSLFLQMNSLRAEDTAVYYCARVQLYSDYFDYWGQGTLVTVSS VL: DIQMTQSPSSVSASVGDRVTITCRASQGISSWLAWYQQKSGKAPKLLIYAASGLQSGVPSRFSGSGSGTDFTLTISSLQPEDLATYYCQQSHSLPPTFGQGTKVEIK	geo mean	3.2
2.20A8 (antibody, IgG2, V domains shown, also called mAb 2.20A8) VH: EVQLLESGGGLVQPGGSLRLSCAASGFTFSNYAMSWVRQAPGKGLEWVSAIRGSGGSTYYADSVKGRFTISRDNSKNTLYLQMNSLRAEDTAVYYCAKDLHYDSSGYLDYWGQGTLVTVSS VL: DIQMTQSPSSVSASVGDRVTITCRASQGIRSWLAWYQQKPGKAPKLLIYAISRLQSGVPSRFSGSGSGTDFTLTISSLQPEDFATYYCQQANSFPLTFGGGTKVEIK	geo mean	3.3
2.7A4 (antibody, IgG2, V domains shown, also called mAb 2.7A4) VH: EVQLVESGGGLVKPGGSLRLSCAASGFTFSTYSMNWVRQAPGKGLEWVSSISSSGDYIYYADSVKGRFTISRDNAKNSLFLQMNSLKAEDTAVYYCARDLVTSMVAFDYWGQGTLVTVSS VL: SYELTQPPSVSVSPGQAARITCSGDALPQKYVFWYQQKSGQAPVLVIYEDSKRPSGIPERFSGSSSGTMATLTISGAQVEDEADYYCYSTDRSGNHRVFGGGTRLTVL	geo mean	3.2
2.14H9 (antibody, IgG2, V domains shown, also called mAb 2.14H9) VH: EVQLVESGGGLVQPGGSLRLSCAASGFTFSRYWMSWVRQAPGKGLEWVANIKQDGSEKYYVDSVKGRFTISRDNAKNSLYLQMNSLRAEDTAVYYCAREGGWFGELAFDYWGQGTLVTVSS VL: EIVLTQSPGTLSLSPGERATLSCRASQRVSSSYLAWYQQKPGQAPRLLIYDASSRATGIPDRFSGSGSGTDFTLTISRLEPEDFAVYYCQQYGSLPWTFGQGTEVEIK	geo mean	3
